FYI, the data here is from PubChem BioAssay.

# Protocol notes: galactose survival enhancers in mitochondrial complex I cybrids – cell-based, galactose medium, ATP luminescence, primary screen (AID 1645843);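 further: positive z means more ATP and so rescue of galactose-driven cybrid death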
# Condition label: complex I mutant cybrid cells, 72 h, stronger effect = higher value
Outcome label depends on z-score relative to -0.4: at/above gives true (1), below gives false (0).

Confirm if z-score reported for the compound CC(C)OC(=O)CCCC=CCC1C(O)CC(O)C1CCC(O)CCc1ccccc1 (stereo not given) is -0.4 or above.
false (0)

Confirm if z-score reported for the compound Cc1cnc(CN(C)Cc2ccc(-c3nc(C(F)(F)F)c(C)c(=O)[nH]3)cc2)[nH]1 is -0.4 or above.
false (0)

Confirm if z-score reported for the compound CN(C)CCCNC(=O)[C@@H]1C[C@H](CN2CCOCC2)CN(CCc2ccccc2)C1 is -0.4 or above.
true (1)

Confirm if z-score reported for the compound CCOC(=O)c1nn(CC)c2c1CN(C(=O)Cn1nc(-c3ccccc3)c3ccccc3c1=O)CC2 is -0.4 or above.
true (1)

Confirm if z-score reported for the compound CN1CCN(Cc2ccc(-c3nc(-c4cccnc4)cc(=O)[nH]3)cc2)CC1 is -0.4 or above.
false (0)

New cases:
Confirm if z-score reported for the compound OCC1OC(n2cnc3c(NC4CCCC4)nc(Cl)nc32)C(O)C1O (stereo not given) is -0.4 or above.
true (1)

Confirm if z-score reported for the compound CCc1c(C(=O)N2CCCN(C(C)=O)CC2)csc1C is -0.4 or above.
false (0)

Confirm if z-score reported for the compound Cc1nsc(NC(=O)N2CCCC2C)n1 (stereo not given) is -0.4 or above.
true (1)

Confirm if z-score reported for the compound CC[C@H](C)[C@H](NC(=O)c1nc2ccccc2c(=O)[nH]1)C(=O)OC is -0.4 or above.
true (1)

Confirm if z-score reported for the compound Cc1nn(C)c(C)c1-c1ccnc(NCC(C)Oc2cccnc2)n1 (stereo not given) is -0.4 or above.
true (1)

====

# Protocol notes: P. berghei load reduction in hepatocytes – cell-based, HepG2, luciferase luminescence, HepG2 viability, primary screen (AID 624349);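 further: 100% = mean of DMSO negative control wells on the same plate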
# Condition label: P. berghei liver stage in HepG2, luciferase luminescence, concentration not given here
Active and inactive are the calls of the source. Rule as the data show it: active = parasite load remaining mostly below about 12% (no sharp cut-off); inactive = mostly above about 10%.
Pick one: active, inactive

Completed entries (count: 5):
How did this test come out for C[N+](C)(C)[C@@H](Cc1c[nH]c(=S)[nH]1)C(=O)[O-] ?
inactive

How did this test come out for C=C(NC(=O)C(=C)NC(=O)c1csc(C2=N[C@H]3c4csc(n4)[C@H]4NC(=O)c5csc(n5)[C@H]([C@@](C)(O)[C@@H](C)O)NC(=O)[C@H]5CSC(=N5)/C(=C\C)NC(=O)[C@H]([C@@H](C)O)NC(=O)c5csc(n5)[C@]3(CC2)NC(=O)[C@H](C)NC(=O)C(=C)NC(=O)[C@H](C)NC(=O)[C@H](C(C)CC)N[C@@H]2C=Cc3c([C@H](C)O)cc(nc3[C@H]2O)C(=O)O[C@@H]4C)n1)C(N)=O (stereo not given in full) ?
inactive

How did this test come out for CNS(=O)(=O)c1ccc(NC(=O)c2ccccc2C(=O)O)cc1 (tested in a mixture with another compound) ?
inactive

How did this test come out for CC[C@@H](CO)Nc1nc(NCc2ccccc2)c2ncn(C(C)C)c2n1 ?
inactive

How did this test come out for CC(=O)[C@H]1CCC2C3CC=C4C[C@@H](O)CC[C@]4(C)C3CC[C@@]21C (stereo not given in full) ?
inactive

New cases:
How did this test come out for C=C1c2c(Cl)ccc(O)c2C(O)=C2C(=O)[C@]3(O)C(O)=C(C(N)=O)C(=O)[C@@H](N(C)C)[C@@H]3[C@@H](O)C12 (stereo not given in full) ?
inactive

How did this test come out for CC/C=C\C/C=C\C/C=C\C/C=C\C/C=C\CCCC(=O)OCC ?
inactive
